- test.method.notes: Cell Viability - Jurkat (AID 426);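 note: potency is the fitted concentration of half-maximal effect; cells exposed to compound for 40 hours at 37 °C before ATP read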
- experimental.conditions: qHTS
Results filed as inconclusive are left out. Calls of active or inactive are those of the source.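 Rule for the calls: active = dose-dependent loss of cell ATP signal giving a full or clear fitted curve, ranked by lower potency value; inconclusive = weak partial curve or response only at the top dose; inactive = no loss of viability signal.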
Give your call using only these classes: active, inactive

Ask: Identify the outcome logged in this assay for the molecule shown: `O=[N+]([O-])c1ccccc1Nc1ccccc1`
Result: inactive

Ask: For `COc1cc(-c2ccc(N=C=O)c(OC)c2)ccc1N=C=O` then?
Result: inactive

Ask: For `CCCCCCN` then?
Result: inactive

Ask: For `CCCCCCc1ccc(-c2ccc(C#N)cc2)cc1` then?
Result: inactive

Ask: For `CCCCNCC` then?
Result: inactive

Ask: For `Cc1c2ccccc2c(C)c2c1ccc1ccccc12` then?
Result: active

Ask: For `Cc1cccnc1` then?
Result: inactive

Ask: For `Nc1cc([N+](=O)[O-])ccc1O` then?
Result: inactive

Ask: For `Oc1ccc(O)c2c(O)cccc12` then?
Result: active

Ask: For `COc1ccc([N+](=O)[O-])cc1N` then?
Result: inactive

Ask: For `O=C(O)/C=C/c1ccc(/C=C/C(=O)O)cc1` then?
Result: inactive

Ask: For `CCN(CC)c1ccc2c(C)cc(=O)oc2c1` then?
Result: inactive

Ask: For `COc1ccc(C)cc1N` then?
Result: inactive

Ask: For `C=Cc1cccc(C)c1` then?
Result: inactive

Ask: For `CCNC(=S)NCC` then?
Result: inactive

Ask: For `Cc1c(N)cccc1Cl` then?
Result: inactive

* * *

- Tested on: DIV17
- test.method.notes: qHTS profiling for inhibitors of Plasmodium falciparum proliferation (AID 504749); note: nearly all actives have a fitted effect of over 60% in size; note: potency is the fitted concentration of half-maximal effect
- experimental.conditions: P. falciparum in erythrocytes, SYBR Green DNA, 72 h; series mostly up to 28.7 µM
Inconclusive results are not listed. The source made the active and inactive calls. The call rests on the fitted dose curve; in most records, active means well fitted inhibition curve with a large enough effect; inconclusive means small, poorly fitted or top-dose-only effect; inactive means flat fitted curve, though single readings scatter.
quantity: Potency

O=C(O)[C@@H](S)[C@H](S)C(=O)O
13.5 µM (active)
NS(=O)(=O)c1cc2c(cc1Cl)N[C@H](Cc1ccccc1)NS2(=O)=O
inactive
CN(C)[C@H]1C(=O)C(C(=O)NCN2CCCC2)=C(O)[C@]2(O)C(=O)C3=C(O)c4c(O)cccc4[C@](C)(O)[C@H]3C[C@H]12
inactive
N[C@@H](Cc1ccccc1)C(=O)O
inactive
C[C@H]1C[C@@H]2[C@H]3CCC4=CC(=O)C=C[C@@]4(C)[C@@]3(Cl)[C@@H](O)C[C@]2(C)[C@]1(OC(=O)c1ccco1)C(=O)CCl
7.21 µM (active)
Cc1cn([C@H]2C[C@H](N=[N+]=[N-])[C@H](CO)O2)c(=O)[nH]c1=O
inactive

Ask: Name the recorded Potency for `CC1(C)S[C@@H]2[C@H](NC(=O)Cc3ccccc3)C(=O)N2[C@@H]1C(=O)O` .
Result: inactive

Ask: For `Cc1c(C(=O)O)c(O)cc2c1C(=O)c1c(O)c([C@H]3O[C@H](CO)[C@@H](O)[C@H](O)[C@H]3O)c(O)c(O)c1C2=O` then?
Result: inactive

Ask: For `CC1(C)[C@@H]2CC[C@]1(C)[C@@H](OC(=O)CSC#N)C2` then?
Result: inactive

Ask: For `C[C@H](CCC(=O)O)[C@H]1CC[C@@H]2[C@H]3[C@@H](C[C@@H](O)[C@]21C)[C@]1(C)CC[C@H](O)C[C@@H]1C[C@@H]3O` then?
Result: inactive
